- test protocol: Superoxide anion scavenging assay
- conditions used: read-out: superoxide anion scavenging IC50
Could you please report measured pIC50 for the items listed next?
Scale: negative log10 of molar concentration, which is what pIC50 denotes.

QUERY: # lookup: pIC50 of COc1ccc(S(=O)(=O)N(Cc2ccccc2)c2nccs2)cc1 [Compound 20]
RESULT: 4.40

QUERY: # lookup: pIC50 of C=CCN(c1nccs1)S(=O)(=O)c1ccc(F)cc1 [Compound 31]
RESULT: 4.22

QUERY: # lookup: pIC50 of C=CCN(c1nccs1)S(=O)(=O)c1ccccc1 [Compound 29]
RESULT: 4.37

QUERY: # lookup: pIC50 of CN(c1nccs1)S(=O)(=O)c1ccc(Cl)cc1 [Compound 37]
RESULT: 4.27

QUERY: # lookup: pIC50 of C=CCN(c1nccs1)S(=O)(=O)c1ccc([N+](=O)[O-])cc1 [Compound 32]
RESULT: 4.31
